system: T-47D spheroids with HUVEC/MSC, viability; assay: Anticancer human tumor T-47D cell line growth inhibition [PI3K]; conditions: second compound 3.16 µM; first compound 1 µM; stronger effect = lower value;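 also: spheroids exposed to agents for seven days before reading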;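 as to viability, T/C: percent of DMSO vehicle control luminescence so 100% = untreated growth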
Quantity name: viability, T/C (%)
Provide only the numeric value, understood in %.

CC1(C)CCC(CN2CCN(c3ccc(C(=O)NS(=O)(=O)c4ccc(NCC5CCOCC5)c([N+](=O)[O-])c4)c(Oc4cnc5[nH]ccc5c4)c3)CC2)=C(c2ccc(Cl)cc2)C1 + CC(Nc1ncnc2nc[nH]c12)c1cc2cccc(Cl)c2c(=O)n1-c1ccccc1 :: 95.5

// below: viability, T/C requested for another compound
Given the entry Cn1nccc1Nc1nccc(-c2ccn(C(CO)c3ccc(Cl)c(F)c3)c(=O)c2)n1 (stereo unspecified) + CC(Nc1ncnc2nc[nH]c12)c1cc2cccc(Cl)c2c(=O)n1-c1ccccc1 , report its measured viability, T/C.
85.5

---

system: T-47D spheroids with HUVEC/MSC, viability; assay: Anticancer human tumor T-47D cell line growth inhibition [PI3K]; conditions: second compound 0.1 µM; first compound 0.3 µM; stronger effect = lower value;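 also: spheroids exposed to agents for seven days before reading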;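 as to viability, T/C: percent of DMSO vehicle control luminescence so 100% = untreated growth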
Parameter viability, T/C: see the listing below.
Write the number in % without appending the unit.

Solved entries:
Cn1cnc2c(F)c(Nc3ccc(Br)cc3Cl)c(C(=O)NOCCO)cc21 + Cc1nc(NC(=O)N2CCCC2C(N)=O)sc1-c1ccnc(C(C)(C)C(F)(F)F)c1 :: 96.1
Cn1cnc2c(F)c(Nc3ccc(Br)cc3Cl)c(C(=O)NOCCO)cc21 + COc1c(OCCCN2CCOCC2)ccc2c3n(c(=NC(=O)c4cnc(N)nc4)nc12)CCN3 :: 38.7
Cn1cnc2c(F)c(Nc3ccc(Br)cc3Cl)c(C(=O)NOCCO)cc21 + CC(Nc1ncnc2nc[nH]c12)c1cc2cccc(Cl)c2c(=O)n1-c1ccccc1 :: 83.8

Turning now to a further compound:
I am curious: what viability, T/C value has been reported for Cn1cnc2c(F)c(Nc3ccc(Br)cc3Cl)c(C(=O)NOCCO)cc21 + CC(Nc1ccc2c(c1)OCCn1cc(N3C(=O)OCC3C(F)F)nc1-2)C(N)=O ?
90.2

---

tested on: T-47D spheroids with HUVEC/MSC, viability; assay: Anticancer human tumor T-47D cell line growth inhibition [PI3K]; details: curve of first compound; second compound 0.316 µM;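 also: spheroids exposed to agents for seven days before reading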
Quantity name: IC50

Record excerpt, results attached:
Cn1nccc1Nc1nccc(-c2ccn(C(CO)c3ccc(Cl)c(F)c3)c(=O)c2)n1 (configuration not stated) + Cc1nc(NC(=O)N2CCCC2C(N)=O)sc1-c1ccnc(C(C)(C)C(F)(F)F)c1 :: > 10 µM
Cn1ncc(Cl)c1-c1cc(C(=O)NC(CN)Cc2cccc(F)c2)sc1Cl (configuration not stated) + CC(Nc1ncnc2nc[nH]c12)c1cc2cccc(Cl)c2c(=O)n1-c1ccccc1 :: > 10 µM
C=CC(=O)N1CCN(c2nc(=O)n(-c3c(C)ccnc3C(C)C)c3nc(-c4c(O)cccc4F)c(F)cc23)C(C)C1 (configuration not stated) + CC(Nc1ccc2c(c1)OCCn1cc(N3C(=O)OCC3C(F)F)nc1-2)C(N)=O :: > 10 µM
CC(C)n1nc(-c2ccc3oc(N)nc3c2)c2c(N)ncnc21 + COc1c(OCCCN2CCOCC2)ccc2c3n(c(=NC(=O)c4cnc(N)nc4)nc12)CCN3 :: < 0.000316 µM
CNC(=O)c1ccc(N2C(=S)N(c3ccc(C#N)c(C(F)(F)F)c3)C(=O)C2(C)C)cc1F + CC(Nc1ncnc2nc[nH]c12)c1cc2cccc(Cl)c2c(=O)n1-c1ccccc1 :: > 10 µM

Endpoint output: IC50 of CCN1CCN(Cc2ccc(Nc3ncc(F)c(-c4cc(F)c5nc(C)n(C(C)C)c5c4)n3)nc2)CC1 + CC(Nc1ncnc2nc[nH]c12)c1cc2cccc(Cl)c2c(=O)n1-c1ccccc1 . Value?
> 1 µM

Quick one: IC50 of CC1(C)CCC(Nc2ncc(C(F)(F)F)c(-c3c[nH]c4c(P(C)(C)=O)c(C#N)ccc34)n2)CN1 (configuration not stated) + Cc1nc(NC(=O)N2CCCC2C(N)=O)sc1-c1ccnc(C(C)(C)C(F)(F)F)c1 ?
4.92 µM
